experimental protocol: Stability of the compound in human plasma assessed as parent compound remaining at 1 uM measured after 30 mins by LC-MS/MS analysis
Assay type: ADME, cell-free
condition: read-out: Stability
measured attribute: remaining at 0.5 h, 1 µM

                                 smiles_str  observed_measurement
0  Cc1cc(C)c(S(=O)(=O)N(CC(=O)O)c2ccc(Nc3ccnc(N4CCCC4)n3)cc2)c(C)c1                   92%
1  Cc1cc(C)c(S(=O)(=O)N(CC(=O)O)c2ccc(Nc3ccnc(N4CCNCC4)n3)cc2)c(C)c1                  104%
